target: T1, mouse δ-opioid receptor (DOR) (mouse, UniProt P32300 1-372); assay: radioligand binding; competition against [3H]-diprenorphine on membranes of HEK293 cells stably expressing the mouse MOR (50 μg) or DOR (20 μg); 50 mM Tris–HCl pH 7.4, 10 mM MgCl2, 0.1% BSA; 1 h at 37 °C; conditions: one partner purified
T1 construct: δ-opioid receptor, mouse; the construct is not described; source: HEK293, stably expressing, membrane preparations
T1 sequence (P32300 whole entry, stated change not applied): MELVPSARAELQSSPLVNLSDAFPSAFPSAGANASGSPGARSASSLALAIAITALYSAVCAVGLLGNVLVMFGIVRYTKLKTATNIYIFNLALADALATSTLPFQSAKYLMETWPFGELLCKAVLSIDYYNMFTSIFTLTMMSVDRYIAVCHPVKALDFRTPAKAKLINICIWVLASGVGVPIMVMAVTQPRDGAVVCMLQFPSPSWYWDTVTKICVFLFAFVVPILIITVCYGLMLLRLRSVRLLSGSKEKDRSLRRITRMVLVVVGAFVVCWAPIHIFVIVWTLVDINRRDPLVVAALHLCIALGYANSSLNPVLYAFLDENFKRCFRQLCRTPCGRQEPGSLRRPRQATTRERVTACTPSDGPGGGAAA
pKi: −log10 of the molar value. Bridge positions count the residues as written; N and C are the ends.
assay metric: pKi

input: Form field: reported pKi of cyclo(CYGGFLRRCIRPKLK) (disulfide 1-9 (inferred), dyn A 1–13 divided into two fragments (YGGFLRR and IRPKLK) placed in the two loops of the SFTI-1 scaffold; source: synthetic peptide (Fmoc chemistry, backbone cyclised, oxidised, RP-HPLC purified)) [helianorphin-19]
output: < 5.00
